This collection of values is drawn from the Human Domainome abundance scans (Beltran et al. 2025).

B1: Far upstream element-binding protein 3, residues 75 to 150; numbered along this chain, Q96I24 (parent)
chain: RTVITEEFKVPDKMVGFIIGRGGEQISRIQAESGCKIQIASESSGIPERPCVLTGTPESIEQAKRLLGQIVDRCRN

Variants of: B1
PROCEDURE_SUMMARY: abundance fitness (aPCA) (normalised: wild type 0, dead -1); higher = more abundant; growth selection in yeast, the domain comes from the species named
SETUP_CONDITIONS: Homo sapiens
ASSAY_ENDPOINT: abundance fitness
Please give only the number in your answer, with no unit.

Req: Report abundance fitness for `E24I`
Resp: -0.035

---
Req: Indicate its recorded abundance fitness; the variant in question is `R1I`
Resp: -0.016

Req: Let me know recorded abundance fitness for `K9L` , thanks.
Resp: -0.021

Req: Output measured abundance fitness for this item: `G68Y`
Resp: -0.045

Req: Determine its reported abundance fitness: `V3N`
Resp: 0.073

Req: Look up and report measured abundance fitness for this entry: `E7A`
Resp: -0.078
